Test system: UO-31 renal
Assay: NCI tumour cell line growth inhibition, 48 h
Measured TGI accompanies every entry in the list below.
Metric: TGI

INSERT INTO results (compound, metric, observed_result) VALUES
  ('C[C@@H]1CC[C@@]2(NC1)O[C@H]1C[C@H]3[C@@H]4CC[C@H]5C[C@@H](O)CC[C@]5(C)[C@H]4CC[C@]3(C)[C@H]1[C@@H]2C', 'TGI', '> 100 µM'),
  ('O=C1C=CC(=O)c2c(O)c(N3CCC[C@@H]3CO)c(Cl)c(O)c21', 'TGI', '3.49 µM'),
  ('O/N=C/c1ccc(O)c(O)c1', 'TGI', '> 100 µM'),
  ('COc1ccc(-c2cc3cc(Cl)cc(Cl)c3oc2=O)cc1OC', 'TGI', '> 100 µM'),
  ('COc1ccc2c(c1)CCc1c-2n[nH]c1-c1[nH]nc2c1CCc1cc(OC)ccc1-2', 'TGI', '> 100 µM'),
  ('CC[PH+](CC)CC.[Cl][Au]', 'TGI', '10.7 µM'),
  ('CCOC(=O)C(NC(=O)c1cccc(Cl)c1)(Nc1cccc(C)c1)C(F)(F)F (centres undefined)', 'TGI', '32.7 µM'),
  ('COc1ccc([C@@H]2OC(=O)C3C2C(=O)O[C@H]3c2ccc(OC)c(OC)c2)cc1OC (some centres undefined)', 'TGI', '> 100 µM'),
  ('O=C1N=C(Nc2nc(-c3csc(NC4=NC(=O)/C(=C\c5ccccc5)S4)n3)cs2)S/C1=C/c1ccccc1', 'TGI', '> 50 µM'),
  ('CCOC(=O)CN1C(=O)c2cc([N+](=O)[O-])cc3cc([N+](=O)[O-])cc(c23)C1=O', 'TGI', '> 100 µM'),
  ('COc1cc2c(cc1OCc1ccccc1)NC(=O)[C@@H]1CCCN1C2=O', 'TGI', '> 100 µM'),
  ('CN(C)/N=N/c1nc2c(c(=O)n(C)c(=O)n2C)n1CC1CO1 (centres undefined)', 'TGI', '31.3 µM'),
  ('N#CCCN(CCC#N)c1ccc(C(N=Nc2ccccc2)=Nc2ccc(F)cc2)cc1', 'TGI', '> 100 µM'),
  ('CC(C)(C)OC(=O)Nc1ccc2c(c1)C(NC(=O)Nc1cccc(C#N)c1)CC(C)(C)O2 (centres undefined)', 'TGI', '> 100 µM'),
  ('CCOC(=O)/C=C/c1cccc(F)c1', 'TGI', '> 100 µM'),
  ('CC(C)(C)/C(O)=C\c1nc2cc(F)c(F)cc2[nH]c1=O', 'TGI', '> 100 µM'),
  ('CC(=N/NC(=S)N(C)C)/C(=N\NC(=S)N(C)C)c1ccccc1', 'TGI', '6.21 µM'),
  ('CC(=O)Oc1ccc2c(-c3ccccc3)c(Oc3ccc(Cl)cc3)c(=O)oc2c1', 'TGI', '28.4 µM'),
  ('CCC1(CC)C(=O)N(C(=O)c2cc(OC)c(OC)c(OC)c2)N(C(=O)c2cc(OC)c(OC)c(OC)c2)C1=O', 'TGI', '> 50 µM'),
  ('CS(=O)(=O)Nc1ccc2ccccc2c1', 'TGI', '> 100 µM'),
  ('CC1(C)OCC(C2OC(C)(C)OC2[C@H]2O[C@@]3(O)[C@H]4[C@H](C=CC[C@@H]42)[C@@H](OCc2ccccc2)[C@H](OCc2ccccc2)[C@H]3OCc2ccccc2)O1 (some centres undefined)', 'TGI', '72.3 µM'),
  ('CC(SCc1ccccc1)C(=O)O (centres undefined)', 'TGI', '> 100 µM'),
  ('CCn1c(-c2nonc2N)nc2c(N3CCCC3)nccc21', 'TGI', '> 25 µM'),
  ('CC1(C)C=C(/C=C2/N(S(=O)(=O)C(F)(F)F)C(/C=C3/N(S(=O)(=O)C(F)(F)F)C(C)(C#N)CC3(C)C)=CC2(C)C)N=C1/C=C1/CC(C)(C)C(=O)N1 (centres undefined)', 'TGI', '> 100 µM'),
  ('CC1=NOC(=O)/C1=C/c1ccc2c(c1)OCO2', 'TGI', '38.9 µM'),
  ('Nc1c(N2CCOCC2)c(=O)nc2[nH]/c(=C\c3ccccc3O)c(=O)n12', 'TGI', '> 100 µM'),
  ('CCOC(=O)c1c(SCc2cc(=O)[nH]c(=O)[nH]2)n(-c2ccccc2)c(=S)n(-c2ccccc2)c1=O', 'TGI', '> 100 µM'),
  ('CC/C(=C/c1ccc(OC)cc1OC)[N+](=O)[O-]', 'TGI', '3.09 µM'),
  ('N#Cc1cccc(C2C3=C(COC3=O)N(CCO)c3cc4c(cc32)OCO4)c1 (centres undefined)', 'TGI', '> 50 µM'),
  ('O=[N+]([O-])c1ccc(-c2csc(=[N+]3CCCCC3)s2)cc1', 'TGI', '> 100 µM'),
  ('CC/C=N\N1C(N)=C(C#N)C(C#N)(C#N)C1CC (centres undefined)', 'TGI', '> 100 µM'),
  ('NCCCCNCCCN1CCOC1=O', 'TGI', '> 100 µM'),
  ('COc1c(N2CCN(CN3C(=O)C(=Nc4ccc(S(=O)(=O)Nc5ncccn5)cc4)c4cc(Cl)ccc43)C(C)C2)c(F)cc2c(=O)c(C(=O)O)cn(C3CC3)c12 (centres undefined)', 'TGI', '> 50 µM'),
  ('O=c1c2ccc(Cl)cc2oc2c(CNc3ccc(S(=O)(=O)Nc4ncccn4)cc3)cccc12', 'TGI', '> 100 µM'),
  ('C[CH2][Sn]([CH2]C)([O]C(=O)c1ccc(F)cc1)[O]C(=O)c1ccc(F)cc1', 'TGI', '> 56.3 µM'),
  ('CC[C@H](NC(=O)OC(C)(C)C)C(=O)NCP(=O)(OCc1ccc([N+](=O)[O-])cc1)OCc1ccc([N+](=O)[O-])cc1', 'TGI', '80.2 µM'),
  ('CSc1ncc2c(n1)-c1ccccc1OC2NC1CC1 (centres undefined)', 'TGI', '> 100 µM'),
  ('CC1=NN2C(=N)/C(=C/c3ccc(F)cc3)C(=O)N=C2S1', 'TGI', '> 100 µM'),
  ('CC1=C(C)SC(=C2Sc3c(n(C)c(=O)n(C)c3=O)S2)S1', 'TGI', '> 100 µM');

----------
Measured TGI accompanies every entry in the list below.
Test system: SNB-19 CNS
Experiment: NCI tumour cell line growth inhibition, 48 h
Metric: TGI

INSERT INTO assay_data (molecule, observed_result) VALUES
  ('CCn1c(-c2nonc2N)nc2c(N3CCCC3)nccc21', '> 25 µM'),
  ('CC1(C)CCC[C@]2(C)c3ccccc3C(=O)CC12 (stereo partly specified)', '> 100 µM'),
  ('COc1ccc2[nH]c(C(=O)OCc3ccc4c(Cl)cc(Cl)c(O)c4n3)cc2c1', '5.69 µM'),
  ('O=C1C=CC(=O)c2c(O)c(N3CCC[C@@H]3CO)c(Cl)c(O)c21', '3.09 µM'),
  ('CN1C2=Nc3n(c4ccccc4[n+]3C)CN2c2ccccc21', '> 100 µM'),
  ('O=c1c2c3c(sc2nc2n1N=C(c1ccc(Br)cc1)CS2)CCCC3', '> 100 µM'),
  ('Nc1c2ccccc2nc2c(C(=O)Nc3ccc(S(N)(=O)=O)cc3)cccc12', '> 100 µM'),
  ('CNC(=O)c1cncc(/C=C/c2ccccc2Cl)c1', '> 25 µM'),
  ('O=c1c2cc([N+](=O)[O-])ccc2oc2nc3n(c(=O)c12)CCCS3', '> 100 µM'),
  ('CC(=N/NC(=S)N(C)C)/C(=N\NC(=S)N(C)C)c1ccccc1', '6.85 µM'),
  ('CC1(C)N=C(N)N=C(N)N1c1cccc(Cl)c1', '> 100 µM'),
  ('O=c1[nH]c(=O)n(C2CC(O)C(CO)O2)cc1C(F)(F)F (stereo unspecified)', '> 100 µM'),
  ('COc1cc2cnc3c4cc(OCc5ccccc5)ccc4ccc3c2cc1OC', '> 100 µM'),
  ('O=C([C@H](O)[C@@H](O)c1cccc(Cl)c1)C12CC3CC(CC(C3)C1)C2', '4.07 µM'),
  ('CCC1(CC)C(=O)N(C(=O)c2cc(OC)c(OC)c(OC)c2)N(C(=O)c2cc(OC)c(OC)c(OC)c2)C1=O', '> 50 µM'),
  ('CCCn1cc2c3c(cccc31)C1C=C(C)CN(C)C1C2 (stereo unspecified)', '62.1 µM'),
  ('COc1ccc(C2c3cc4c(cc3OC(Nc3ccccc3)C2C)OCO4)cc1 (stereo unspecified)', '> 100 µM'),
  ('COc1cc2c3c(n(CCCNCCCN)c(=O)c2cc1OC)-c1cc2c(cc1C3=O)OCO2', '11.6 µM'),
  ('CN(N)c1nc(N)c(C#N)c(C#N)c1C#N', '> 10 µM'),
  ('CCOC(=O)CN1C(=O)c2cc([N+](=O)[O-])cc3cc([N+](=O)[O-])cc(c23)C1=O', '> 100 µM'),
  ('CC1(C)OCC(C2OC(C)(C)OC2[C@H]2O[C@@]3(O)[C@H]4[C@H](C=CC[C@@H]42)[C@@H](OCc2ccccc2)[C@H](OCc2ccccc2)[C@H]3OCc2ccccc2)O1 (stereo partly specified)', '> 100 µM');
